The values you see were collected from patent US9625458B2.

# system-tested: E. coli histidine binding protein (SEQ ID NO:2) variant V163C, fluorophore conjugate (Escherichia coli, UniProt P0AEU0, V185C)
# method-summary: biochemical
# condition-notes: Acrylodan conjugate, peristeric site
recorded-endpoint: pKd
# pKd is unitless: minus log10 of the molar concentration; print number only

// pKd value for N[C@@H](Cc1c[nH]cn1)C(=O)O [histidine] : 6.40

###

# system-tested: E. coli glucose binding protein variant W183C, fluorophore conjugate (Escherichia coli, UniProt P0AEE5, W206C)
# Sequence (P0AEE5 24-332 W206C limits assumed): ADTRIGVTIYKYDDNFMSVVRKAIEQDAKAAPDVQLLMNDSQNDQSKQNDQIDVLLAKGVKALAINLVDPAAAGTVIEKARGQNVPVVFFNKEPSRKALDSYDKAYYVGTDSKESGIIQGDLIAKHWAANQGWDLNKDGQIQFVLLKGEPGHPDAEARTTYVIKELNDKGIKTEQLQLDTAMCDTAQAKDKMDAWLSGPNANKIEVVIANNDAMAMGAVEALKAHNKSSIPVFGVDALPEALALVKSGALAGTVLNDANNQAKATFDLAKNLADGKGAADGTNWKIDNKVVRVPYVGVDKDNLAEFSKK
# method-summary: biochemical
# condition-notes: Kd, Fluorescein conjugate; endosteric site
recorded-endpoint: Kd

// Kd value for OC[C@H]1OC(O)[C@H](O)[C@@H](O)[C@@H]1O (stereo partly shown) : 17.6 mM

###

# system-tested: E. coli arabinose binding protein variant C64A/L298C, fluorophore conjugate (Escherichia coli, UniProt P02924, C87A/L321C)
# Construct: initiator methionine (N); Gly-Ser-Gly-(His)n or Gly-Ser-(His)n (n = 5, 6 or 10) (C); made in house; host or cells: E. coli BL21-DE3
# Sequence (P02924 24-329 C87A/L321C): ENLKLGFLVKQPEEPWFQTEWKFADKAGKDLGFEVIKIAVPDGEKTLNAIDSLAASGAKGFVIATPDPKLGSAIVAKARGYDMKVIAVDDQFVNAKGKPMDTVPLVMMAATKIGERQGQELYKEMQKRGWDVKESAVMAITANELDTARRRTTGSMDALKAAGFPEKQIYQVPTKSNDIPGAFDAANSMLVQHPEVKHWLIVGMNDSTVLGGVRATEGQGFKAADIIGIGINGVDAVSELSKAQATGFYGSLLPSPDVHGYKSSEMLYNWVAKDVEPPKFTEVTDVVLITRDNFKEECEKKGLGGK
# method-summary: Fluorimetric titration of fluorophore conjugates
# condition-notes: NBD conjugate, allosteric site
recorded-endpoint: pKd
# pKd is unitless: minus log10 of the molar concentration; print number only

// pKd value for OC1OC[C@H](O)[C@H](O)[C@H]1O (stereo partly shown) : 4.25

###

# system-tested: E. coli ribose binding protein variant E192C, fluorophore conjugate (Escherichia coli, UniProt P02925, E217C)
# Construct: Gly-Ser-Gly-(His)n or Gly-Ser-(His)n, n=5, 6 or 10 (C); initiator methionine (N); made in house; host or cells: E. coli strain BL21-DE3
# Sequence (P02925 26-296 E217C): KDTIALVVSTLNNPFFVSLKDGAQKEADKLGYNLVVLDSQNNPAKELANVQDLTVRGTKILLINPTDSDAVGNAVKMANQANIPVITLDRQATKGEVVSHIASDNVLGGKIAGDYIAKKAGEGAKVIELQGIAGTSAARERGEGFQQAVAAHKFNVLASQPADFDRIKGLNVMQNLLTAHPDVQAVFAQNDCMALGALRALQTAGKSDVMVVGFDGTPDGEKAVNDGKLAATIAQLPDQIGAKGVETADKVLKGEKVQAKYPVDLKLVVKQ
# method-summary: Fluorimetric titration of fluorophore conjugates
# condition-notes: affinity for ribose (Kd), E192C-JPW4039 conjugate
recorded-endpoint: pKd
# pKd is unitless: minus log10 of the molar concentration; print number only

// pKd value for OC1OC[C@@H](O)[C@@H](O)[C@H]1O (stereo partly shown) : 5.59

###

# system-tested: E. coli ribose binding protein variant E192C, fluorophore conjugate (Escherichia coli, UniProt P02925, E217C)
# Construct: Gly-Ser-Gly-(His)n or Gly-Ser-(His)n, n=5, 6 or 10 (C); initiator methionine (N); made in house; host or cells: E. coli strain BL21-DE3
# method-summary: Fluorimetric titration of fluorophore conjugates
# condition-notes: Kd, Fluorescein conjugate, E192C, ligand ribose
recorded-endpoint: pKd
# pKd is unitless: minus log10 of the molar concentration; print number only

// pKd value for OC1OC[C@@H](O)[C@@H](O)[C@H]1O (stereo partly shown) : 4.94

###

# system-tested: E. coli arabinose binding protein variant C64A/F23C, fluorophore conjugate (Escherichia coli, UniProt P02924, C87A/F46C)
# Construct: initiator methionine (N); Gly-Ser-Gly-(His)n or Gly-Ser-(His)n (n = 5, 6 or 10) (C); made in house; host or cells: E. coli BL21-DE3
# Sequence (P02924 24-329 F46C/C87A): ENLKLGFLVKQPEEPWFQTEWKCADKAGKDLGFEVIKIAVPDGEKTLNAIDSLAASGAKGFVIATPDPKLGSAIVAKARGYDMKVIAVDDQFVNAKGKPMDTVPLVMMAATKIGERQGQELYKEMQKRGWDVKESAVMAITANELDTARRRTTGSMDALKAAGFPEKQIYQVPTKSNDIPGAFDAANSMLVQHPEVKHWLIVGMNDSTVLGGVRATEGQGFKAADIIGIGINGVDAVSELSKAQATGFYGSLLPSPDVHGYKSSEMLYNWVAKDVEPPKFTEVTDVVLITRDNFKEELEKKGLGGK
# method-summary: Fluorimetric titration of fluorophore conjugates
# condition-notes: JPW4039 conjugate, allosteric site
recorded-endpoint: Kd (µM)
Quick note: give the figure in µM, leave out the unit.

// Kd value for OC1OC[C@H](O)[C@H](O)[C@H]1O (stereo partly shown) : 38

###

# system-tested: E. coli dipeptide binding protein variant D450C, fluorophore conjugate (Escherichia coli, UniProt P23847, D478C)
# Construct: initiator methionine (N); Gly-Ser-Gly-(His)n or Gly-Ser-(His)n (n = 5, 6 or 10) (C); made in house; host or cells: E. coli BL21-DE3
# Sequence (P23847 29-535 D478C): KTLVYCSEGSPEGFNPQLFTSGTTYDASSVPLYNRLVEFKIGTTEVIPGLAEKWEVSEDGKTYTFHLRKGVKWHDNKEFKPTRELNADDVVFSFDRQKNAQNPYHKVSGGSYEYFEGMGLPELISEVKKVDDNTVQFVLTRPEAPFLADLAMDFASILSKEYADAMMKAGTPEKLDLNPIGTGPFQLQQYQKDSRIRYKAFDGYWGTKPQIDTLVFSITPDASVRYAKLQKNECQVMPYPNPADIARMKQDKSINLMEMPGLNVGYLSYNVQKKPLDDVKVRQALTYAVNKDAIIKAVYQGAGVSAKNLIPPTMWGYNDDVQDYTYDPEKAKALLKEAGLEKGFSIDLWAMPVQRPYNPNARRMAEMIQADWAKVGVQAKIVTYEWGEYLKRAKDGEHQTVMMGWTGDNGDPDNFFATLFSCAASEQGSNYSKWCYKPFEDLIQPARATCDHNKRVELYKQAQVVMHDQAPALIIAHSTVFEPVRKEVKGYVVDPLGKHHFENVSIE
# method-summary: Fluorimetric titration of fluorophore conjugates
# condition-notes: JPW4042 conjugate, peristeric site
# Source text: Molecular Cloning. […] Additionally the sequence of Fe(III) BP was mutated by substitution of Glu57 with Asp to raise the Kd to a concentration range conveniently measured using Fe(III) citrate. […] Fluorimetry. […] Fluorescence emission spectra were acquired with excitation and emission slit widths of 4 and 8 nm, respectively. […] Analyte affinity measurements. […] The emission wavelength monitored was that of maximum difference in intensity between the ligand-free and bound states. […]
recorded-endpoint: pKd
# pKd is unitless: minus log10 of the molar concentration; print number only

// pKd value for CC(C)C[C@H](NC(=O)CN)C(=O)O [Gly-Leu, Gly-Leu dipeptide] : 5.82

###

# system-tested: E. coli arabinose binding protein variant C64A/L253C, fluorophore conjugate (Escherichia coli, UniProt P02924, C87A/L276C)
# Construct: initiator methionine (N); Gly-Ser-Gly-(His)n or Gly-Ser-(His)n (n = 5, 6 or 10) (C); made in house; host or cells: E. coli BL21-DE3
# Sequence (P02924 24-329 C87A/L276C): as the sequence (P02924 24-329 F46C/C87A) above, with C23F, L253C counted along it
# method-summary: Fluorimetric titration of fluorophore conjugates
# condition-notes: L253C-NBD conjugate
recorded-endpoint: pKd
# pKd is unitless: minus log10 of the molar concentration; print number only

// pKd value for OC1OC[C@H](O)[C@H](O)[C@H]1O (stereo partly shown) : 3.11

###

# system-tested: E. coli arabinose binding protein variant C64A/K301C (Escherichia coli, UniProt P02924, C87A/K324C)
# Construct: initiator methionine (N); Gly-Ser-Gly-(His)n or Gly-Ser-(His)n (n = 5, 6 or 10) (C)
# Sequence (P02924 24-329 C87A/K324C): as the sequence (P02924 24-329 C87A/L321C) above, with C298L, K301C counted along it
# method-summary: Arabinose affinity by tryptophan fluorescence
recorded-endpoint: pKd
# pKd is unitless: minus log10 of the molar concentration; print number only

// pKd value for OC1OC[C@H](O)[C@H](O)[C@H]1O (stereo partly shown) : 5.80

###

# system-tested: E. coli ribose binding protein variant E192C, fluorophore conjugate (Escherichia coli, UniProt P02925, E217C)
# Construct: Gly-Ser-Gly-(His)n or Gly-Ser-(His)n, n=5, 6 or 10 (C); initiator methionine (N); made in house; host or cells: E. coli strain BL21-DE3
# method-summary: Fluorimetric titration of fluorophore conjugates
# condition-notes: affinity for ribose (Kd), E192C-NBD conjugate
recorded-endpoint: Kd (nM)
Quick note: give the figure in nM, leave out the unit.

// Kd value for OC1OC[C@@H](O)[C@@H](O)[C@H]1O (stereo partly shown) : 2600

###

# system-tested: E. coli dipeptide binding protein variant K394C, fluorophore conjugate (Escherichia coli, UniProt P23847, K422C)
# Construct: initiator methionine (N); Gly-Ser-Gly-(His)n or Gly-Ser-(His)n (n = 5, 6 or 10) (C); made in house; host or cells: E. coli BL21-DE3
# Sequence (P23847 29-535 K422C): as the sequence (P23847 29-535 D478C) above, with K394C, C450D counted along it
# method-summary: Fluorimetric titration of fluorophore conjugates
# condition-notes: Kd, JPW4039 conjugate; peristeric site
recorded-endpoint: Kd (µM)
Quick note: give the figure in µM, leave out the unit.

// Kd value for CC(C)C[C@H](NC(=O)CN)C(=O)O [Gly-Leu, Gly-Leu dipeptide] : 30

###

# system-tested: E. coli dipeptide binding protein variant K394C, fluorophore conjugate (Escherichia coli, UniProt P23847, K422C)
# Construct: initiator methionine (N); Gly-Ser-Gly-(His)n or Gly-Ser-(His)n (n = 5, 6 or 10) (C); made in house; host or cells: E. coli BL21-DE3
# method-summary: Fluorimetric titration of fluorophore conjugates
# condition-notes: Kd, Acrylodan conjugate; peristeric site
recorded-endpoint: pKd
# pKd is unitless: minus log10 of the molar concentration; print number only

// pKd value for CC(C)C[C@H](NC(=O)CN)C(=O)O [Gly-Leu, Gly-Leu dipeptide] : 4.64

###

# system-tested: E. coli dipeptide binding protein variant K394C, fluorophore conjugate (Escherichia coli, UniProt P23847, K422C)
# Construct: initiator methionine (N); Gly-Ser-Gly-(His)n or Gly-Ser-(His)n (n = 5, 6 or 10) (C); made in house; host or cells: E. coli BL21-DE3
# method-summary: Fluorimetric titration of fluorophore conjugates
# condition-notes: Kd, JPW4042 conjugate; peristeric site
recorded-endpoint: Kd (µM)
Quick note: give the figure in µM, leave out the unit.

// Kd value for CC(C)C[C@H](NC(=O)CN)C(=O)O [Gly-Leu, Gly-Leu dipeptide] : 78

###

# system-tested: E. coli ribose binding protein variant E192C, fluorophore conjugate (Escherichia coli, UniProt P02925, E217C)
# Construct: Gly-Ser-Gly-(His)n or Gly-Ser-(His)n, n=5, 6 or 10 (C); initiator methionine (N); made in house; host or cells: E. coli strain BL21-DE3
# method-summary: Fluorimetric titration of fluorophore conjugates
# condition-notes: Kd, NBD conjugate, E192C, ligand ribose
recorded-endpoint: Kd (nM)
Quick note: give the figure in nM, leave out the unit.

// Kd value for OC1OC[C@@H](O)[C@@H](O)[C@H]1O (stereo partly shown) : 2600

###

# system-tested: E. coli glucose binding protein variant W183C, fluorophore conjugate (Escherichia coli, UniProt P0AEE5, W206C)
# method-summary: biochemical
# condition-notes: dissociation constant, W183C-acrylodan
recorded-endpoint: Kd (mM)
Quick note: give the figure in mM, leave out the unit.

// Kd value for OC[C@H]1OC(O)[C@H](O)[C@@H](O)[C@@H]1O (stereo partly shown) [glucose] : 5.98
